Assay: solvent given as SMILES
Settings: in Cc1ccccc1
Would you please tag the item Criterion met when its absorption maximum is 500 nm or above, and Criterion not met when it is below?

Is it the case that c1ccc(N2c3ccc4ccccc4c3-c3c4ccccc4cn[n+]3[B-]2(c2ccccc2)c2ccccc2)cc1 has absorption maximum reaching or exceeding 500 nm?
Criterion met

hey, is absorption maximum for this one >= 500 nm? c1ccc2c(c1)Cc1ccccc1N2c1c2ccccc2cc2ccccc12
Criterion not met

Could you tell me if the measured absorption maximum of CCN1c2ccc(/C=N/Nc3ccccn3)cc2Sc2cc(-c3ccc(C#N)cc3)ccc21 reaches 500 nm or more?
Criterion not met

Please check the record Cc1cc(-c2ccc(-n3c4ccccc4c4ccccc43)cc2)nc(-c2ccc(-c3ccccc3)cc2)n1 and state if its absorption maximum is at or above 500 nm.
Criterion not met

I'd appreciate it if you could say whether Fc1cccc(F)c1[B-]1(c2c(F)cccc2F)Oc2c(ccc3c4c(ccc23)C=[N+](c2ccccc2)[B-](c2c(F)cccc2F)(c2c(F)cccc2F)O4)C=[N+]1c1ccccc1 has absorption maximum at least equal to 500 nm.
Criterion met

Determine whether this compound has absorption maximum no lower than 500 nm: [C-]#[N+]c1ccc(-c2ccc(N(C)C)cc2)cc1
Criterion not met

Could you please find out whether C(=C\c1nc(/C=C/c2ccc(-n3c4ccccc4c4ccccc43)cc2)nc(/C=C/c2ccc(-n3c4ccccc4c4ccccc43)cc2)n1)/c1ccc(-n2c3ccccc3c3ccccc32)cc1 has absorption maximum that meets 500 nm or exceeds it?
Criterion not met

Could you please find out whether Cc1cc(C)c(C2=C3C=C(c4ccccc4)C(c4ccccc4)=[N+]3[B-](F)(F)n3c2cc(-c2ccccc2)c3-c2ccccc2)c(C)c1 has absorption maximum that meets 500 nm or exceeds it?
Criterion met

Quick check: does c1ccc(-c2nc(-c3ccccc3)nc(-c3ccc(-n4c5ccccc5c5cc6c(cc54)c4ccccc4n6-c4ccccc4)cc3)n2)cc1 have absorption maximum greater than or equal to 500 nm?
Criterion not met

Quick check, absorption maximum >= 500 nm? N#Cc1c(-n2c3ccc(Br)cc3c3cc(Br)ccc32)c(C#N)c(-n2c3ccc(Br)cc3c3cc(Br)ccc32)c(-n2c3ccc(Br)cc3c3cc(Br)ccc32)c1-n1c2ccc(Br)cc2c2cc(Br)ccc21
Criterion not met

Is the recorded value of absorption maximum equal to or greater than 500 nm for this compound? COc1ccc(N(c2ccc(/C=C(\C)c3ccccc3)cc2)c2ccc(/C=C(\C)c3ccccc3)cc2)cc1
Criterion not met

// inclusive: absorption maximum at least 500 nm? input: CC1=CC(C)=[N+]2C1=C(c1ccc(-c3ccc(OS(=O)(=O)c4ccc([N+](=O)[O-])cc4[N+](=O)[O-])cc3)s1)c1c(C)cc(C)n1[B-]2(F)F
Criterion met

Hello, I need to know if C(=C\c1ccc(/C=C/c2ccc(N(c3ccccc3)c3ccccc3)cc2)c2nsnc12)/c1ccc(N(c2ccccc2)c2ccccc2)cc1 has measured absorption maximum not below 500 nm. Thanks!
Criterion met

Please check the record O=C(c1ccc(-n2c3ccccc3c3cc(-n4c5ccccc5c5ccccc54)ccc32)cc1)c1ccc(-n2c3ccccc3c3cc(-n4c5ccccc5c5ccccc54)ccc32)cn1 and state if its absorption maximum is at or above 500 nm.
Criterion not met

###

Experiment: solvent given as SMILES
Conditions: in C1CCOC1
For each of the compounds below, state its absorption maximum.
Answer in nm, number only, no unit symbol.

absorption maximum lookup needed for F[B-]1(F)n2ccnc2-c2cccc[n+]21 , thanks.
298

I'd like to know its absorption maximum. The compound in question is COc1cc(-c2nc3c4cccnc4c4ncccc4c3[nH]2)c(OC)cc1/C=C/c1ccncc1
394

Would you mind telling me what absorption maximum value was observed for C(=C1c2ccccc2CCc2ccccc21)c1ccc(-c2ccc(C=C3c4ccccc4CCc4ccccc43)cc2)cc1 ?
335

What value of absorption maximum has been recorded for this entry: CC(C)(C)c1ccc(C2=C(c3ccc(-n4c5ccc(C(C)(C)C)cc5c5cc(C(C)(C)C)ccc54)cc3)S(=O)(=O)c3c2sc(-c2ccc(-n4c5ccc(C(C)(C)C)cc5c5cc(C(C)(C)C)ccc54)cc2)c3-c2ccc(C(C)(C)C)cc2)cc1
429

For the compound shown here, c1ccc(-n2c3ccccc3c3cc(-c4ccc5nc(-c6ccc(-n7c8ccccc8c8ccccc87)cc6)nn5c4)ccc32)cc1 , give the reported absorption maximum.
340

Param item = CCCCCCCc1ccc(C2=[N+]3C(=C4c5cc(OCC(CC)CC)c(-c6ccc(CCCCCCC)o6)n5[B-](F)(F)[n+]5nnn(c54)[B-]3(F)F)C=C2OCC(CC)CC)o1 ; retrieve measured absorption maximum.
811

What measured absorption maximum goes with c1ccc(-n2c3ccccc3c3cc(-c4ccn5nc(-c6ccc(-n7c8ccccc8c8ccccc87)cc6)nc5c4)ccc32)cc1 ?
341
